# tested_target: recombinant His-tagged cytoplasmic domains of TRKA receptor (NTRK1, PV3144, aa 441-796) (Homo sapiens)
# Construct: aa 441-796; His
# protocol_summary: Isolated TRK enzyme assay (HTRF KinEASE-TK, PV3144 TrkA enzyme assay)
# cond: 4 nM enzyme, 40 uM ATP, 35 min, arithmetic mean where more than one reading
pIC50: −log10 of the molar value.
Give fulfilled when the value for pIC50 is at least 8. Give not fulfilled when it is less.

[[record]]
input_smiles = "Cn1cnc(-c2ccc(O[C@H]3[C@@H]4CO[C@H]3CN(C(=O)Cc3ccc(OC(F)(F)F)cc3)C4)c(C(N)=O)c2)c1"
label_class = "not fulfilled"

[[record]]
input_smiles = "NC(=O)c1cc(-c2ccn(CCO)n2)ccc1OC1CCN(C(=O)Cc2ccc(OC(F)(F)F)cc2)CC1"
label_class = "fulfilled"

[[record]]
input_smiles = "Cc1nn(C[C@@H](O)CO)c(C)c1-c1ccc(OC2CCN(C(=O)Cc3ccc(OC(F)(F)F)cc3)CC2)c(C(N)=O)c1"
label_class = "fulfilled"


---

Quick reference for IC50 among some compounds
# tested_target: recombinant His-tagged cytoplasmic domains of TRKA receptor (NTRK1, PV3144, aa 441-796) (Homo sapiens, UniProt P04629)
# Construct: aa 441-796; His
# Sequence (P04629 441-796): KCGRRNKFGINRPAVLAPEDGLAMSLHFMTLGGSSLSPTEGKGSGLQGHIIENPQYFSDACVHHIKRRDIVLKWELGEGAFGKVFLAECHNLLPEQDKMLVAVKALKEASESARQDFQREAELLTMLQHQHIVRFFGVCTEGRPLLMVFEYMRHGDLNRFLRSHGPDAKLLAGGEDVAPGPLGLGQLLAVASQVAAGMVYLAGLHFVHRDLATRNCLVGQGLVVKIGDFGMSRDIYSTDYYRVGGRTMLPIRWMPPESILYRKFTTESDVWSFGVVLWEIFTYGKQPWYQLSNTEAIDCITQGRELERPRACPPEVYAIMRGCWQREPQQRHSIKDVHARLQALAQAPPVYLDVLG
# protocol_summary: Isolated TRK enzyme assay (HTRF KinEASE-TK, PV3144 TrkA enzyme assay)
# cond: 4 nM enzyme, 40 uM ATP, 35 min, arithmetic mean where more than one reading
test_readout: IC50 (nM)

[[record]]
compound = "N#Cc1cc(-c2ccc(OC3CCN(C(=O)Cc4ccc(OC(F)(F)F)cc4)CC3)c(C(N)=O)c2)cs1"
test_readout = "IC50"
recorded_value = 16.7

[[record]]
compound = "Cn1ncc(-c2cnc(O[C@@H]3CCN(C(=O)Cc4ccc(OC(F)(F)F)cc4)C[C@@H]3F)c(C(N)=O)c2)n1"
test_readout = "IC50"
recorded_value = 2.93

[[record]]
compound = "NC(=O)c1cc(-c2ccc(C(=O)O)cc2)cnc1OC1CCN(C(=O)Cc2ccc(OC(F)(F)F)cc2)CC1"
test_readout = "IC50"
recorded_value = 5.9

[[record]]
compound = "NC(=O)c1cc(-c2cn[nH]c2)ccc1O[C@H]1CCN(C(=O)Cc2ccc(OC3CC3)cn2)C[C@@H]1F"
test_readout = "IC50"
recorded_value = 4.4

[[record]]
compound = "CC(N)c1ccc(-c2cnc(OC3CCN(C(=O)Cc4ccc(OC(F)(F)F)cc4)CC3)c(C(N)=O)c2)cc1 (racemic) [Example 94]"
test_readout = "IC50"
recorded_value = 8.8

[[record]]
compound = "CS(=O)(=O)Cn1cc(-c2cnc(O[C@@H]3CCN(C(=O)Cc4ccc(OC(F)(F)F)cc4)C[C@@H]3F)c(C(N)=O)c2)cn1"
test_readout = "IC50"
recorded_value = 1.8

[[record]]
compound = "CS(=O)(=O)Cn1cc(-c2cc(C(N)=O)c(O[C@@H]3CCN(C(=O)Cc4ccc(OC5CC5)cc4)C[C@@H]3F)cn2)cn1"
test_readout = "IC50"
recorded_value = 7.7

[[record]]
compound = "NC(=O)c1cc(-c2cnn(CCO)c2)ncc1OC1CCN(C(=O)Cc2ccc(OC(F)(F)F)cc2)CC1"
test_readout = "IC50"
recorded_value = 17.1

[[record]]
compound = "NC(=O)c1cc(-c2c[nH]cn2)cnc1O[C@H]1CCN(C(=O)Cc2ccc(OC(F)(F)F)cc2)C[C@H]1F"
test_readout = "IC50"
recorded_value = 1.4

[[record]]
compound = "Cn1cc(-c2ccc(O[C@H]3CCN(C(=O)Cc4ccc(OC(F)(F)F)cc4)C[C@H]3F)c(C(N)=O)c2)cn1"
test_readout = "IC50"
recorded_value = 0.9

[[record]]
compound = "C[C@H](O)c1ccc(-c2cnc(OC3CCN(C(=O)Cc4ccc(OC(F)(F)F)cc4)CC3)c(C(N)=O)c2)cc1"
test_readout = "IC50"
recorded_value = 12.7

[[record]]
compound = "NC(=O)c1cc(-c2cnn(CC3(O)COC3)c2)ccc1OC1CCN(C(=O)Cc2ccc(OC(F)(F)F)cc2)CC1"
test_readout = "IC50"
recorded_value = 6.9

[[record]]
compound = "Cc1nc(-c2cnc(O[C@@H]3CCN(C(=O)Cc4ccc(OC(F)(F)F)cc4)C[C@@H]3F)c(C(N)=O)c2)c[nH]1"
test_readout = "IC50"
recorded_value = 1.3

[[record]]
compound = "CS(=O)(=O)Cn1cc(-c2cc(C(N)=O)c(O[C@@H]3CCN(C(=O)Cc4ccc(OC(F)(F)F)cc4)C[C@@H]3F)cn2)cn1"
test_readout = "IC50"
recorded_value = 3.4

[[record]]
compound = "CC(C)(O)Cn1cc(-c2cnc(O[C@H]3CCN(C(=O)Cc4ccc(OC5CC5)cn4)C[C@@H]3F)c(C(N)=O)c2)cn1"
test_readout = "IC50"
recorded_value = 16.6

[[record]]
compound = "Cn1cc(-c2ccc(OC3CCN(C(=O)Cc4ccc(OC5CC5)cn4)CC3)c(C(N)=O)c2)cn1"
test_readout = "IC50"
recorded_value = 11.4

[[record]]
compound = "NC(=O)c1cc(-c2cn[nH]c2)cnc1O[C@@H]1CCN(C(=O)Cc2ccc(OC(F)(F)F)cc2)C[C@@H]1F"
test_readout = "IC50"
recorded_value = 1.6

[[record]]
compound = "NC(=O)c1cc(-c2c[nH]c(C3(O)COC3)n2)ccc1OC1CCN(C(=O)Cc2ccc(OC(F)(F)F)cc2)CC1"
test_readout = "IC50"
recorded_value = 5.1

[[record]]
compound = "NC(=O)c1cc(-c2cccnc2)ccc1OC1CCN(C(=O)Cc2ccc(OC(F)(F)F)cc2)CC1"
test_readout = "IC50"
recorded_value = 11

[[record]]
compound = "CC(C)(O)Cn1cc(-c2cnc(O[C@@H]3CCN(C(=O)Cc4ccc(OC5CC5)cn4)C[C@@H]3F)c(C(N)=O)c2)cn1"
test_readout = "IC50"
recorded_value = 7.2

[[record]]
compound = "Cn1cc(-c2cnc(OC3CCN(C(=O)Cc4ccc(OC(F)(F)F)cc4)CC3)c(C(N)=O)c2)cn1"
test_readout = "IC50"
recorded_value = 15.1

[[record]]
compound = "Cn1cc(-c2ccc(OC3CCN(C(=O)Cc4ccc(OC5CC5)cc4)CC3)c(C(N)=O)c2)cn1"
test_readout = "IC50"
recorded_value = 8.57

[[record]]
compound = "Cc1nn(C[C@H](O)CO)c(C)c1-c1ccc(OC2CCN(C(=O)Cc3ccc(OC(F)(F)F)cc3)CC2)c(C(N)=O)c1"
test_readout = "IC50"
recorded_value = 7.4

[[record]]
compound = "CC1CC(Oc2ccc(-c3cn(C)cn3)cc2C(N)=O)CCN1C(=O)Cc1ccc(OC(F)(F)F)cc1 (racemic)"
test_readout = "IC50"
recorded_value = 6.1

[[record]]
compound = "CC(C)(O)Cn1cc(-c2cnc(O[C@H]3CCN(C(=O)Cc4ccc(OC5CC5)cn4)C[C@H]3F)c(C(N)=O)c2)cn1"
test_readout = "IC50"
recorded_value = 4.9

[[record]]
compound = "Cn1cnc(-c2ccc(O[C@@H]3CCN(C(=O)Cc4ccc(OC5CC5)cc4)C[C@H]3F)c(C(N)=O)c2)c1 (racemic)"
test_readout = "IC50"
recorded_value = 3.8

[[record]]
compound = "Cn1cc(-c2ccc(OC3CCN(C(=O)Cc4ccc(OC(F)(F)F)c(F)c4)CC3)c(C(N)=O)c2)cn1"
test_readout = "IC50"
recorded_value = 4.5


---

# tested_target: recombinant His-tagged cytoplasmic domains of TRKA receptor (NTRK1, PV3144, aa 441-796) (Homo sapiens, UniProt P04629)
# Construct: aa 441-796; His
# protocol_summary: Isolated TRK enzyme assay (HTRF KinEASE-TK, PV3144 TrkA enzyme assay)
# cond: 4 nM enzyme, 40 uM ATP, 35 min, arithmetic mean where more than one reading
pIC50: −log10 of the molar value.
test_readout: pIC50

[[record]]
compound = "NC(=O)c1cc(-c2cnn(C3CS(=O)(=O)C3)c2)cnc1O[C@H]1CCN(C(=O)Cc2ccc(OC3CC3)cn2)C[C@H]1F (racemic) [Example 39]"
recorded_value = 8.15

[[record]]
compound = "NC(=O)c1cc(-c2cn[nH]c2)ncc1O[C@@H]1CCN(C(=O)Cc2ccc(OC(F)(F)F)cc2)C[C@@H]1F [Example 85]"
recorded_value = 8.77

[[record]]
compound = "NC(=O)c1cc(-c2cn[nH]c2)ncc1OC1CCN(C(=O)Cc2ccc(OC(F)(F)F)c(F)c2)CC1 [Example 169]"
recorded_value = 7.93

[[record]]
compound = "Cc1nc(C)c(-c2ccc(OC3CCN(C(=O)Cc4ccc(OC(F)(F)F)cc4)CC3)c(C(N)=O)c2)s1 [Example 143]"
recorded_value = 7.78


---

Quick reference for pIC50 among some molecules
# tested_target: recombinant His-tagged cytoplasmic domains of TRKA receptor (NTRK1, PV3144, aa 441-796) (Homo sapiens)
# Construct: aa 441-796; His
# protocol_summary: Isolated TRK enzyme assay (HTRF KinEASE-TK, PV3144 TrkA enzyme assay)
# cond: 4 nM enzyme, 40 uM ATP, 35 min, arithmetic mean where more than one reading
pIC50: −log10 of the molar value.
test_readout: pIC50

[[record]]
molecule = "NC(=O)c1cc(-c2cn[nH]c2)ncc1O[C@H]1CCN(C(=O)Cc2ccc(OC(F)(F)F)cc2)C[C@H]1F"
recorded_value = 8.82

[[record]]
molecule = "C[C@@H](O)Cn1cc(-c2ccc(OC3CCN(C(=O)Cc4ccc(OC(F)(F)F)cc4)CC3)c(C(N)=O)c2)cn1"
recorded_value = 8.59

[[record]]
molecule = "NC(=O)c1cc(-n2cc(CO)cn2)cnc1O[C@@H]1CCN(C(=O)Cc2ccc(OC(F)(F)F)cc2)C[C@@H]1F"
recorded_value = 8.07

[[record]]
molecule = "Cn1cnc(-c2cnc(O[C@H]3CCN(C(=O)Cc4ccc(OC5CC5)cc4)C[C@@H]3F)c(C(N)=O)c2)c1"
recorded_value = 8.68

[[record]]
molecule = "Cn1cnc(-c2cnc(O[C@@H]3CCN(C(=O)Cc4ccc(OC5CC5)cc4)C[C@@H]3F)c(C(N)=O)c2)c1"
recorded_value = 8.85

[[record]]
molecule = "Cc1n[nH]c(C)c1-c1cnc(O[C@@H]2CCN(C(=O)Cc3ccc(OC4CC4)cn3)C[C@@H]2F)c(C(N)=O)c1"
recorded_value = 8.16

[[record]]
molecule = "NC(=O)c1cc(-c2ccc3c(c2)CNS3(=O)=O)ccc1OC1CCN(C(=O)Cc2ccc(OC(F)(F)F)cc2)CC1"
recorded_value = 8.17

[[record]]
molecule = "NC(=O)c1cc(-c2cccc(CO)c2)ccc1OC1CCN(C(=O)Cc2ccc(OC(F)(F)F)cc2)CC1"
recorded_value = 8.28

[[record]]
molecule = "NC(=O)c1cc(-c2cc[nH]n2)ccc1OC1CCN(C(=O)Cc2ccc(OC(F)(F)F)cc2)CC1"
recorded_value = 7.91

[[record]]
molecule = "NC(=O)c1cc(-c2c[nH]cn2)cnc1O[C@H]1CCN(C(=O)Cc2ccc(OC(F)(F)F)cc2)C[C@@H]1F"
recorded_value = 8.38

[[record]]
molecule = "NC(=O)c1cc(-c2cnn(C3CS(=O)(=O)C3)c2)ccc1O[C@H]1CCN(C(=O)Cc2ccc(OC(F)(F)F)cc2)C[C@H]1F"
recorded_value = 8.92

[[record]]
molecule = "Cc1nc[nH]c1-c1cnc(OC2CCN(C(=O)Cc3ccc(OC(F)(F)F)cc3)CC2)c(C(N)=O)c1"
recorded_value = 7.88

[[record]]
molecule = "Cn1cc(-c2ccc(OC3CCN(C(=O)Cc4ccc(SC(F)(F)F)cc4)CC3)c(C(N)=O)c2)cn1"
recorded_value = 8.57

[[record]]
molecule = "NC(=O)c1cc(-c2cscn2)cnc1OC1CCN(C(=O)Cc2ccc(OC(F)(F)F)cc2)CC1"
recorded_value = 8.08

[[record]]
molecule = "Cn1cncc1-c1ccc(OC2CCN(C(=O)Cc3ccc(OC(F)(F)F)cc3)CC2)c(C(N)=O)c1"
recorded_value = 7.77

[[record]]
molecule = "CC(N)c1ccc(-c2ccc(OC3CCN(C(=O)Cc4ccc(OC(F)(F)F)cc4)CC3)c(C(N)=O)c2)cc1 (racemic)"
recorded_value = 8.57

[[record]]
molecule = "NC(=O)c1cc(-c2cnn(C3COC3)c2)ccc1OC1CCN(C(=O)Cc2ccc(OC(F)(F)F)cc2)CC1"
recorded_value = 8.59

[[record]]
molecule = "NC(=O)c1cc(-c2cn[nH]c2)cnc1O[C@@H]1CCN(C(=O)Cc2ccc(OC3CC3)cn2)C[C@@H]1F"
recorded_value = 8.59

[[record]]
molecule = "CS(=O)(=O)Cn1cc(-c2cc(C(N)=O)c(O[C@H]3CCN(C(=O)Cc4ccc(OC5CC5)cc4)C[C@@H]3F)cn2)cn1"
recorded_value = 7.80

[[record]]
molecule = "Cn1cc(-c2cc(C(N)=O)c(O[C@H]3CCN(C(=O)Cc4ccc(OC(F)(F)F)cc4)C[C@H]3F)nn2)cn1"
recorded_value = 8.38

[[record]]
molecule = "CS(=O)(=O)Cn1cc(-c2cnc(O[C@H]3CCN(C(=O)Cc4ccc(OC(F)(F)F)cc4)C[C@@H]3F)c(C(N)=O)c2)cn1"
recorded_value = 8.43

[[record]]
molecule = "CS(=O)(=O)Cn1cc(-c2cnc(OC3CCN(C(=O)Cc4ccc(OC(F)(F)F)c(F)c4)CC3)c(C(N)=O)c2)cn1"
recorded_value = 7.96

[[record]]
molecule = "Cn1cnc(-c2ccc(O[C@H]3CCN(C(=O)Cc4ccc(OC5CC5)cc4)C[C@@H]3F)c(C(N)=O)c2)c1"
recorded_value = 8.51

[[record]]
molecule = "CCc1ccc(CC(=O)N2CCC(Oc3ccc(-c4cnn(C)c4)cc3C(N)=O)CC2)cc1"
recorded_value = 7.71

[[record]]
molecule = "Cc1cn(-c2cnc(O[C@@H]3CCN(C(=O)Cc4ccc(OC(F)(F)F)cc4)C[C@@H]3F)c(C(N)=O)c2)cn1"
recorded_value = 7.91

[[record]]
molecule = "Cn1cc(-c2ccc(OC3CCN(C(=O)Cc4ccc(C(C)(C)C)nc4)CC3)c(C(N)=O)c2)cn1"
recorded_value = 8.05

[[record]]
molecule = "Cn1cnc(-c2ccc(O[C@@H]3[C@@H]4CC[C@H]3CN(C(=O)Cc3ccc(OC(F)(F)F)cc3)C4)c(C(N)=O)c2)c1"
recorded_value = 8.28

[[record]]
molecule = "Cn1cnc(-c2ccc(OC3CCN(C(=O)Cc4ccc(OC5CC5)cc4)CC3)c(C(N)=O)c2)c1"
recorded_value = 7.98


Reference for the values: patent US20170305857A1
